biological target: menin (Homo sapiens, UniProt O00255, T541A); construct: Menin (a.a. 1-610-6×his tag); experiment: Menin/MLL homogenous time-resolved fluorescence (HTRF) assay; format: binding; settings: location 2; read-out: (2) location 2 Menin HTRF assay (IC50 (nM))
Sequence (O00255 with tags, fused parts or gaps T541A): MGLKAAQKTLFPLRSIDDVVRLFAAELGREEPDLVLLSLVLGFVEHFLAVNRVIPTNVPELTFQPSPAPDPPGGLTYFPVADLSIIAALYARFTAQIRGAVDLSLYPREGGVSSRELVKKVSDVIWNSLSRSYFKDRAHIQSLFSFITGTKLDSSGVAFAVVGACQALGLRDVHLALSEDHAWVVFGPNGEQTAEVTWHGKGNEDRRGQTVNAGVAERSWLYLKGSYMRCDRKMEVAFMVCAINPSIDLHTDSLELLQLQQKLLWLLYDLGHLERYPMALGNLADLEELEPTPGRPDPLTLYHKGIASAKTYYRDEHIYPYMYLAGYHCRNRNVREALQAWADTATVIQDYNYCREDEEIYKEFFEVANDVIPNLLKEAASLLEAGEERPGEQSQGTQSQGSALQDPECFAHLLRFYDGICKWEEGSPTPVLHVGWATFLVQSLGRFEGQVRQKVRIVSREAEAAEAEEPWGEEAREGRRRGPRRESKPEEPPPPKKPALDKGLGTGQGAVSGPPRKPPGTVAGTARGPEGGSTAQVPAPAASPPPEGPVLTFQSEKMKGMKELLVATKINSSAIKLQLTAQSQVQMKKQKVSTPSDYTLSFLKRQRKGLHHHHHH
Rule: measured IC50 below 9 nM gets Condition met; anything equal to or greater than 9 nM gets Condition not met.

Report whether reported IC50 is lower than 9 nM (strictly) for CNc1nc(N2CCC3(CC(Nc4ccc5[nH]c(=O)oc5c4)C3)C2)c2cc(CC(F)(F)F)sc2n1 (mixture of isomers)
Condition not met

Same for CS(=O)(=O)N[C@H]1CC[C@H](NC2CC3(CCN(c4ncnc5sc(CC(F)(F)F)cc45)C3)C2)CC1 (single isomer, unassigned) [Compound 103]
Condition not met

Same for FC(F)(F)Cc1cc2c(N3CC4(CCC(NCc5cccc(-c6cc[nH]n6)c5)C4)C3)ncnc2s1 (stereo not drawn)
Condition met

Same for CNC(=O)c1cc(F)c(NC2CC3(CCN(c4ncnc5sc(CC(F)(F)F)cc45)C3)C2)c(F)c1 (single isomer, unassigned) [Compound 228]
Condition not met

Same for O=c1[nH]c2cc(CNC3CCC4(C3)CN(c3ncnc5sc(CC(F)(F)F)cc35)C4)ccc2o1 (single isomer, unassigned) [Compound 57]
Condition met

Same for CS(=O)(=O)N1CCN(CCn2c(=O)[nH]c3cc(NC4CC5(CCN(c6ncnc7sc(CC(F)(F)F)cc67)C5)C4)ccc32)CC1 (mixture of isomers)
Condition not met

Same for CS(=O)(=O)NCc1ccc(NC2CC3(CCN(c4ncnc5sc(CC(F)(F)F)cc45)C3)C2)cc1 (single isomer, unassigned) [Compound 368]
Condition met

Same for CN(C)CCNC(=O)c1ccc(NC2CC3(CCN(c4ncnc5sc(CC(F)(F)F)cc45)C3)C2)nc1 (single isomer, unassigned) [Compound 253]
Condition not met

Same for NC(=O)Cn1c(=O)[nH]c2cc(CNC3CCC4(C3)CN(c3ncnc5sc(CC(F)(F)F)cc35)C4)ccc21 (stereo not drawn)
Condition met

Same for CNC(=O)c1ccc(NC2CC3(CCN(c4ncnc5sc(CC(F)(F)F)cc45)C3)C2)cc1C1CCN(C)CC1 (single isomer, unassigned) [Compound 230]
Condition not met

Same for FC(F)(F)Cc1cc2c(N3CC4(CC[C@H](NC5(c6ccccc6)CC5)C4)C3)ncnc2s1 (stereo in doubt)
Condition not met

Same for Cn1c(=O)[nH]c2cc(NC3CC4(CCN(c5ncnc6sc(CC(F)(F)F)cc56)C4)C3)ccc21 (stereo not drawn) [Compound 89]
Condition not met
